System: 2B4 cells apoptosis, DAPI nuclear morphology
Experiment: pro-apoptotic activity by DAPI nuclear scoring – imaging, DAPI fluorescence, 2B4 cells, MCL1-BIM inhibitor project, late-stage follow-up (AID 493059)
Details: at 25 µM; active compounds read high
quantity-measured: apoptosis (%)
Entry rule: numbers only, all in %.

molecule=Cc1cccc(NC(=O)CNC(=O)c2cccc(-n3cccc3)c2)c1C quantity_measured=apoptosis recorded_result=1.9
molecule=C=CCn1c(SCC(=O)c2ccc(O)c(O)c2)nnc1-c1cccnc1 quantity_measured=apoptosis recorded_result=3.5
molecule=COc1ccc(NC(=O)CN(C)C(=O)c2cc3c(s2)CCC3)cc1 quantity_measured=apoptosis recorded_result=1.8
molecule=O=C(NN=Cc1cccc(F)c1)c1cc(-c2ccco2)nc2ccccc12 quantity_measured=apoptosis recorded_result=3
molecule=c1ccc(CSc2nnc(-c3ccco3)c(-c3ccco3)n2)cc1 quantity_measured=apoptosis recorded_result=14

Consider the molecule CCc1sc(C(C2C(=O)CC(C)(C)CC2=O)C2C(=O)CC(C)(C)CC2=O)cc1[N+](=O)[O-] and give its measured apoptosis.
3.5
